Entry source: patent US6906205B2

Listed here are compounds together with their documented Survival (days) po.
# Test system: ANKA strain of P. berghei
# testDetails: single dose STI in vivo screen in infected mice
# Parameters: species or system Plasmodium berghei
# runParameters: single 10 mg/kg po in 3% ethanol and 7% Tween 80; untreated control 5.6 ± 0.3
# Description: In the single dose STI in vivo screen, Moro SPF or NMRI mice infected with the ANKA strain of P. berghei (groups of 3-5 mice) were treated on day one post-infection with trioxolanes dissolved or suspended in 3% ethanol and 7% Tween 80. […] Antimalarial activity was measured by percent reduction in parasitemia on day three post-infection and survival times compared to an untreated control group. […]
Quick reminder: number only, in days, skip the unit.

Worked examples, 4 compounds total:
compound	parameterMeasured	unit	testValue
CC(=O)OC(C)(C)C(=O)N[C@H]1CC[C@]2(CC1)OOC1(O2)C2CC3CC(C2)CC1C3 (stereo partly drawn) [OZ202]	Survival (days) po	days	7.0
O=C1COC2(CCC3(CC2)OOC2(O3)C3CC4CC(C3)CC2C4)OC1 (stereo not drawn) [OZ130]	Survival (days) po	days	9.0
CCOC(=O)CCC(=O)N1CCC2(CC1)OOC1(O2)C2CC3CC(C2)CC1C3 (stereo not drawn) [OZ53]	Survival (days) po	days	6.0
COCC(=O)N[C@H]1CC[C@]2(CC1)OOC1(O2)C2CC3CC(C2)CC1C3 (stereo partly drawn) [OZ186]	Survival (days) po	days	8.0

Problem: Jot down Survival (days) po (ANKA strain of P. berghei) of c1ccc(CNC2CCC3(CC2)OOC2(O3)C3CC4CC(C3)CC2C4)cc1 (stereo not drawn) [OZ160] .
Result: 6.3

Problem: State, for ANKA strain of P. berghei, measured Survival (days) po of the compound listed here: c1ccc(C2(c3ccccc3)CCC3(CC2)OOC2(O3)C3CC4CC(C3)CC2C4)cc1 (stereo not drawn) [OZ34]
Result: 5.3

Problem: Write down measured Survival (days) po (ANKA strain of P. berghei) for this compound. O=C(OCCC1CCC2(CC1)OOC1(O2)C2CC3CC(C2)CC1C3)c1ccc([N+](=O)[O-])cc1 (stereo not drawn) [OZ88]
Result: 6.0

Problem: Report Survival (days) po from ANKA strain of P. berghei testing of C1CC1CNC1CCC2(CC1)OOC1(O2)C2CC3CC(C2)CC1C3 (stereo not drawn) [OZ184]
Result: 6.7

Problem: # return Survival (days) po of O=C(O)c1cn(C[C@H]2CC[C@]3(CC2)OOC2(O3)C3CC4CC(C3)CC2C4)cn1 (stereo partly drawn) [OZ225] (system: ANKA strain of P. berghei)
Result: 5.7

Problem: Provide the reported Survival (days) po (system: ANKA strain of P. berghei) for N#CC1(c2ccc(Cl)c(Cl)c2)CCC2(CC1)OOC1(O2)C2CC3CC(C2)CC1C3 (stereo not drawn) [OZ75]
Result: 7.3

Problem: Look up and report measured Survival (days) po (ANKA strain of P. berghei) for the following compound: CC1(C)CCC2(CC1)OOC1(O2)C2CC3CC(C2)CC1C3 (stereo not drawn) [OZ33]
Result: 6.7
